Could you please report measured EC50 for the items listed next?
# Experimental system: hM5 (human Muscarinic receptor subtype 5) (Homo sapiens)
# Sequence (P08912 whole entry): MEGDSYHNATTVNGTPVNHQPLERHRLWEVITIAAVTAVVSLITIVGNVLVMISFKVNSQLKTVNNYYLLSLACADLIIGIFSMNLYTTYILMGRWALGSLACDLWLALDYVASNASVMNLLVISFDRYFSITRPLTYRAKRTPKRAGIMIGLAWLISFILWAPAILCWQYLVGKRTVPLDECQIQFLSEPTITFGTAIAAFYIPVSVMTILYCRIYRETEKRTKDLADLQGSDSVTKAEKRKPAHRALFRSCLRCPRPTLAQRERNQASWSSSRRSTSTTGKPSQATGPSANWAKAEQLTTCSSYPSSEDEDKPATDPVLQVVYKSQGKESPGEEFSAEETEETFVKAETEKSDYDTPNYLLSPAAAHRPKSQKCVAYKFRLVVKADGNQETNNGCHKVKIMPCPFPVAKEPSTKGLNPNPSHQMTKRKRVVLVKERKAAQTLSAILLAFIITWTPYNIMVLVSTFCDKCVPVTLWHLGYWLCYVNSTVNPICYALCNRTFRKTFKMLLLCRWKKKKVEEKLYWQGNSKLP
# Test description: Human M5 calcium mobilization FLIPR assay
# Experimental setup: CHO cells expressing hM5, intracellular Ca2+ release

Query: What value of EC50 has been recorded for this entry: C#CCOC(=O)N1CCC(C)(N2CCC(N3C(=O)N[C@H]4CCCC[C@@H]43)CC2)C1 (mixture of isomers)
Response: 0.313 µM

Query: What value of EC50 has been recorded for this entry: CCOC(=O)N1CCC(C)(N2CCC(N3C(=O)C[C@@H]4CCCC[C@H]43)CC2)C1 (stereo in doubt)
Response: > 120 µM

Query: What value of EC50 has been recorded for this entry: CC(C)OC(=O)N1CCC(C)(N2CCC(N3C(=O)N[C@H]4CCCC[C@@H]43)CC2)CC1
Response: > 40 µM

Query: What value of EC50 has been recorded for this entry: CCOC(=O)N1CCC(C)(N2CCC(N3C(=O)N[C@@H]4CCCC[C@H]43)CC2)CC1
Response: 0.586 µM

Query: What value of EC50 has been recorded for this entry: CCOC(=O)N1CCC(C)(N2CCC(N3C(=O)N[C@H]4CCCC[C@@H]43)CC2)C1 (single isomer, unassigned) [Example 21]
Response: > 8.41 µM

Query: What value of EC50 has been recorded for this entry: CCOC(=O)N1CCC(C)(N2CCC(N3C(=O)N[C@H]4CCCC[C@@H]43)CC2)C1 (mixture of isomers) [Example 07]
Response: 1.1 µM

Query: What value of EC50 has been recorded for this entry: CC#CCOC(=O)N1CCC(C)(N2CCC(N3C(=O)N[C@H]4CCCC[C@@H]43)CC2)CC1
Response: > 40 µM

Query: What value of EC50 has been recorded for this entry: CC(C)OC(=O)N1CCC(C)(N2CCC(N3C(=O)N[C@@H]4CCCC[C@H]43)CC2)CC1
Response: > 49.2 µM

Query: What value of EC50 has been recorded for this entry: CCC(=O)N1CCC(C)(N2CCC(N3C(=O)N[C@H]4CCCC[C@@H]43)CC2)CC1
Response: > 40 µM

Query: What value of EC50 has been recorded for this entry: CC1(N2CCC(N3C(=O)N[C@H]4CCCC[C@@H]43)CC2)CCN(C(=O)C2CC2)CC1
Response: > 40 µM

Query: What value of EC50 has been recorded for this entry: CCOC(=O)N1CCC(C)(N2CCC(N3C(=O)N[C@@H]4CCCC[C@@H]43)CC2)CC1 (relative stereo)
Response: 0.919 µM

Query: What value of EC50 has been recorded for this entry: CC1(N2CCC(N3C(=O)C[C@H]4CCCC[C@@H]43)CC2)CCN(C(=O)C2CC2)CC1
Response: > 40 µM

Query: What value of EC50 has been recorded for this entry: CCOC(=O)N1CCC(C)(N2CCC(N3C(=O)N[C@H]4CCCC[C@@H]43)CC2)CC1
Response: 0.0499 µM

Query: What value of EC50 has been recorded for this entry: CC(C)OC(=O)N1CCC(C)(N2CCC(N3C(=O)C[C@H]4CCCC[C@@H]43)CC2)CC1
Response: > 40 µM

Query: What value of EC50 has been recorded for this entry: CC1(N2CCC(N3C(=O)N[C@@H]4CCCC[C@H]43)CC2)CCN(C(=O)C2CC2)CC1
Response: > 49.2 µM

Query: What value of EC50 has been recorded for this entry: CCOC(=O)N1CCC(C)(N2CCC(N3C(=O)N[C@H]4CCCC[C@@H]43)CC2)C1 (single isomer, unassigned) [Example 22]
Response: 0.412 µM

Query: What value of EC50 has been recorded for this entry: CC(C)OC(=O)N1CCC(C)(N2CCC(N3C(=O)N[C@@H]4CCCC[C@@H]43)CC2)CC1 (relative stereo)
Response: > 40 µM

---

Could you please report measured log10 of EC50 for the items listed next?
# Experimental system: cloned human M2 receptor (Homo sapiens)
# Construct: purchased Perkin-Elmer RBHM2M; host or cells: CHO cell membranes
# Test description: hM2 receptor GTPγS binding
# Format: biochemical
# Experimental setup: CHO membranes expressing hM2, [35S]GTPγS binding
# Method: Membranes produced from Chinese hamster ovary cells (CHO) expressing the cloned human M2 receptor (human Muscarinic receptor subtype 2, gene bank access NM_000739), are obtained from Perkin-Elmer (RBHM2M). […] The EC50, IC50 and Emax of the compounds of the invention are evaluated from 10-point dose-response curves (three fold concentration range) done in 60 μl in 384-well non-specific binding surface plate (Corning). […] The radioactivity (cpm) is counted in a Trilux (Perkin-Elmer). […]
Hi team, quick reminder: these entries are log10 of EC50 (nM).

Query: What value of log10 of EC50 has been recorded for this entry: CCC(=O)N1CCC(C)(N2CCC(N3C(=O)N[C@H]4CCCC[C@@H]43)CC2)CC1
Response: 3.37

Query: What value of log10 of EC50 has been recorded for this entry: CCOC(=O)N1CCC(C)(N2CCC(N3C(=O)N[C@H]4CCCC[C@@H]43)CC2)C1 (mixture of isomers) [Example 07]
Response: 3.36

Query: What value of log10 of EC50 has been recorded for this entry: C#CCOC(=O)N1CCC(C)(N2CCC(N3C(=O)N[C@H]4CCCC[C@@H]43)CC2)CC1
Response: 1.68

Query: What value of log10 of EC50 has been recorded for this entry: CCOC(=O)N1CCC(C)(N2CCC(N3C(=O)N[C@H]4CCCC[C@@H]43)CC2)C1 (single isomer, unassigned) [Example 21]
Response: 3.69

Query: What value of log10 of EC50 has been recorded for this entry: CCOC(=O)N1CCC(C)(N2CCC(N3C(=O)C[C@@H]4CCCC[C@H]43)CC2)C1 (stereo in doubt)
Response: 3.43

Query: What value of log10 of EC50 has been recorded for this entry: CC#CCOC(=O)N1CCC(C)(N2CCC(N3C(=O)N[C@H]4CCCC[C@@H]43)CC2)C1 (single isomer, unassigned)
Response: 2.31

Query: What value of log10 of EC50 has been recorded for this entry: CCOC(=O)N1CCC(C)(N2CCC(N3C(=O)N[C@@H]4CCCC[C@@H]43)CC2)CC1 (relative stereo)
Response: 2.11

Query: What value of log10 of EC50 has been recorded for this entry: CCOC(=O)N1CCC(C)(N2CCC(N3C(=O)N[C@@H]4CCCC[C@H]43)CC2)CC1
Response: 2.68

---

# Experimental system: cloned human M2 receptor (Homo sapiens)
# Sequence (P08172 1-466): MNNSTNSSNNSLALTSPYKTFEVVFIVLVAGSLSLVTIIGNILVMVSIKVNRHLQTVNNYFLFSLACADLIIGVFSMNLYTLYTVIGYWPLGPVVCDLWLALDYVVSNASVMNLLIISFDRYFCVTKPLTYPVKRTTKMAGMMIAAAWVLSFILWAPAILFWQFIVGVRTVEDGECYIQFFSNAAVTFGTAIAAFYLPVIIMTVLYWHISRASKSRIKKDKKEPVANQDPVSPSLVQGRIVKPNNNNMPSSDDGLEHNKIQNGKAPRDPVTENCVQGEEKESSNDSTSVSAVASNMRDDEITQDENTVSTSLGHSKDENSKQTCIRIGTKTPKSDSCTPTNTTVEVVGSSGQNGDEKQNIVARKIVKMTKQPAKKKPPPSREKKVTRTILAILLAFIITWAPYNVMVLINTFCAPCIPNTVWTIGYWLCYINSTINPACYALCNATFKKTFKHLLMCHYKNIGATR
# Test description: hM2 receptor GTPγS binding
# Experimental setup: CHO membranes expressing hM2, [35S]GTPγS binding
Readout: pEC50
To interpret pEC50, take it as minus log10 of a concentration measured in moles per litre.

Query: What value of pEC50 has been recorded for this entry: CCOC(=O)N1CCC(C)(N2CCC(N3C(=O)N[C@H]4CCCC[C@@H]43)CC2)CC1
Response: 7.35

Query: What value of pEC50 has been recorded for this entry: CCOC(=O)N1CCC(C)(N2CCC(N3C(=O)N[C@@H]4CCCC[C@H]43)CC2)C1 (mixture of isomers)
Response: 5.54

---

Could you please report measured EC50 for the items listed next?
# Experimental system: cloned human M4 receptor (Homo sapiens, UniProt P08173)
# Sequence (P08173 whole entry): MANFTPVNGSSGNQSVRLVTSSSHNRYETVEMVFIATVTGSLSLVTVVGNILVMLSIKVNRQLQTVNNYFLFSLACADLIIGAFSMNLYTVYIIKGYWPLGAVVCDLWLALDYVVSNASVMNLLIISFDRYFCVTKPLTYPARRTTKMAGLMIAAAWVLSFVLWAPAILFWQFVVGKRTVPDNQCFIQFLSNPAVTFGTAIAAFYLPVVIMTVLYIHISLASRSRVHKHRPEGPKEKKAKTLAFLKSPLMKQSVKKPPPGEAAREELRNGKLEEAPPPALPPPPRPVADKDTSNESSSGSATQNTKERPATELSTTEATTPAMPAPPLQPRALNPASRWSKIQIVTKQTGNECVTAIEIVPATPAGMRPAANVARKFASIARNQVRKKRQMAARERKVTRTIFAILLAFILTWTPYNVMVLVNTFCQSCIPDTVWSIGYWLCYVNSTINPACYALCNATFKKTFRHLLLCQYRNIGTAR
# Test description: hM4 receptor GTPγS binding
# Experimental setup: CHO membranes expressing hM4, [35S]GTPγS binding

Query: What value of EC50 has been recorded for this entry: CC#CCOC(=O)N1CCC(C)(N2CCC(N3C(=O)N[C@H]4CCCC[C@@H]43)CC2)CC1
Response: > 90 µM

Query: What value of EC50 has been recorded for this entry: CC(C)OC(=O)N1CCC(C)(N2CCC(N3C(=O)N[C@@H]4CCCC[C@H]43)CC2)CC1
Response: > 30 µM

Query: What value of EC50 has been recorded for this entry: CC#CCOC(=O)N1CCC(C)(N2CCC(N3C(=O)N[C@H]4CCCC[C@@H]43)CC2)C1 (single isomer, unassigned)
Response: 0.919 µM

Query: What value of EC50 has been recorded for this entry: CCOC(=O)N1CCC(C)(N2CCC(N3C(=O)N[C@@H]4CCCC[C@H]43)CC2)C1 (mixture of isomers)
Response: > 30 µM
